# target-system: Adenine DNA glycosylase (Homo sapiens);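 note: human MUTYH activity read as 594 nm fluorescence from cleavage and release of a quenched DNA duplex, coupled with APE1 for strand incision, lower signal meaning inhibition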
# Sequence (whole entry): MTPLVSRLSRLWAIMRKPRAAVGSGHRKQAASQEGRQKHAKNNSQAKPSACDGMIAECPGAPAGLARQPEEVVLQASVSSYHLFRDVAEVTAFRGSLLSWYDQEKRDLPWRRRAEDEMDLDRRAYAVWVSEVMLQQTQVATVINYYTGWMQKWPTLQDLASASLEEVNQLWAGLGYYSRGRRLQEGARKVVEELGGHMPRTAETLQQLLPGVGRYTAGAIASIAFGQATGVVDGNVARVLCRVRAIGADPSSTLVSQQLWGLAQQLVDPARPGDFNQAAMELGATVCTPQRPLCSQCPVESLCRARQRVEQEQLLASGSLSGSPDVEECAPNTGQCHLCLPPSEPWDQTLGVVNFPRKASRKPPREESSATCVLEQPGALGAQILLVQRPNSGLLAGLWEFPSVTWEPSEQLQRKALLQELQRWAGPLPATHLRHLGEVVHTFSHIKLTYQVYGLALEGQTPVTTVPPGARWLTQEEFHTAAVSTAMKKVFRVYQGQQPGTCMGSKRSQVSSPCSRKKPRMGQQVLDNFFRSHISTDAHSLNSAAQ
# study-conditions: Compound Concentration 10.0 uM, Hit No
# Description: Inhibition of MUTYH by quantifying inhibition of MUTYH-mediated cleavage and dissociation of quenched duplex DNA oligonucleotides, measured as fluorescence at 594 nm. To generate a functional strand incision and increase turn-over this assay is coupled to APE1.
Collected inhibition values appear next to each entry.
The reply should contain only the number, in %.

Brc1c(NC2=NCCN2)ccc2nccnc12 :: -8.17
CC(C)NC(=O)c1ccc(C#Cc2ccncc2)cn1 :: 12.7
CNC(=O)c1ccc(Nc2ncc(C(F)(F)F)c(NCc3nccnc3N(C)S(C)(=O)=O)n2)cc1 :: 9.35
O=C(O)Cc1cc(I)c(Oc2ccc(O)c(I)c2)c(I)c1 :: -6.77
COc1ccccc1N1CCN(C[C@@H](C(=O)NC(C)(C)C)c2ccccc2)CC1 :: -2.23
Cc1nnc2n1-c1sc(CCC(=O)N3CCOCC3)cc1C(c1ccccc1Cl)=NC2 :: 16.7

Recorded inhibition for Cc1c(CC(=O)O)c2cccnc2n1Cc1ccc(S(C)(=O)=O)cc1C(F)(F)F , please?
7.57

# inhibition lookup, item Cc1cc(C)c(NC(=O)C2CC3CCC2C3)c(C)c1 (stereo unspecified)
27.8

Which inhibition value belongs to CC(C)(C(=O)O)c1ccc(C(O)CCCN2CCC(C(O)(c3ccccc3)c3ccccc3)CC2)cc1 (stereo unspecified) ?
-0.107

Consider the molecule Cc1c(C2=CCN(C(=O)N(C)C(C)C)CC2)nnn1-c1cccnc1F and give its measured inhibition.
17

Which value of inhibition has been reported for CCCCc1oc2ccccc2c1C(=O)c1cc(I)c(OCCN(CC)CC)c(I)c1 in the records?
-0.487

* * *

# target-system: Uracil-DNA glycosylase (Homo sapiens);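 note: UNG excision on a quenched double-stranded DNA oligo probe, with APE1 added for strand incision and turnover, read as fluorescence at 594 nm as strands separate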
# study-conditions: Compound Concentration 10.0 uM, Hit No
# Description: Inhibition of UNG by quantifying inhibition of UNG-mediated cleavage and dissociation of quenched duplex DNA oligonucleotides, measured as fluorescence at 594 nm. To generate a functional strand incision and increase turn-over this assay is coupled to APE1.
property-label: inhibition (%)
Numeric answer only, unit % assumed.

Would you please look over these solved cases?
CC(C1CC2CCC1C2)n1c(S)nnc1-c1ccco1 (stereo not given) :: -6.26
COCCn1c(C)c(C)s/c1=N\C(=O)C1C(C)(C)C1(C)C :: -7.32
CN1CCc2cc(Cl)c(O)cc2[C@@H](c2ccccc2)C1 :: -3.84
CN(C)C(=O)N[C@H]1CC[C@H](CCN2CCN(c3cccc(Cl)c3Cl)CC2)CC1 :: -3.02

Attention now shifts to the item below.
Which inhibition is listed for C[C@@H]1CN(c2cc(-c3n[nH]c4ccc(OC5(C)CC5)cc34)ncn2)C[C@H](C)O1 ?
3.96
